# procedure.text: pKa of lipid
# Assay type: physicochemical
outcome.measure: pKa

**Query** Answer with the recorded pKa of CCCCCCCCCCCCCCCCCCC(CCCCCCCCCCCCCCCCCC)OC(=O)CCCN(C)C [compound 111] only.
**Result** > 7.4
